Values were extracted from PubChem BioAssay (NCI).

Test system: 786-0 renal
Method notes: NCI tumour cell line growth inhibition, 48 h
Can you tell me TGI for the items I'm about to list?
Numeric answer only, unit µM assumed.

Q: Read off the recorded TGI for `COc1ccc2c(c1)/C(=C\c1c(Cl)n(-c3ccccc3)c3ccccc13)C(=O)N2`
Result: 29.2

Q: Respond only with TGI recorded for Cc1cc2c(cc1Cl)SC(C(=O)c1ccc(Cl)c(Cl)c1)NS2(=O)=O (stereo not drawn)
Result: 97

Q: Consider the molecule `CCOC(=O)Nc1cc2c(c(N)n1)N=C(c1ccc3ccccc3c1)CN2` and give its recorded TGI.
Result: 3.81

Q: Consider the molecule `CN1CCN(c2ccc(Nc3ncc4cc5n(c4n3)C3(CCCCC3)CNC5=O)nc2)CC1` . State its measured TGI.
Result: 17

Q: Name the recorded TGI of the item Cc1c(N=Nc2ccc(Cl)cc2)c(C)n(C2OC(CO)C(O)C(O)C2O)c(=S)c1C#N (stereo not drawn) in your answer.
Result: 37.4

Q: Specify TGI for CCc1ccc(/C=C/C(=O)C2CN(CC)CCC2(O)/C=C/c2ccc(CC)cc2)cc1 (stereo not drawn) and stop.
Result: 3.22

###

Test system: MDA-MB-435
Method notes: NCI tumour cell line growth inhibition, 48 h
Readout kind: TGI

Q: Give the reported TGI for this compound. `COc1ccc(/C=C2\N=C(c3ccccc3)OC2=O)cc1OC(C)=O`
Result: > 100 µM

Q: Give reported TGI value for `O=C(O)c1cn(C2CC2)c2cc(N3CCN(Cc4ccc5ccccc5c4O)CC3)c(F)cc2c1=O`
Result: > 100 µM

Q: Give reported TGI value for `COc1ccc(Nc2nc3ccc(C(F)(F)F)cc3nc2C(=O)O)cc1`
Result: > 100 µM

Q: Please give the documented TGI of `COc1cc2c(cc1OC)C(=O)/C(=C/c1cc(Cl)cc(Cl)c1)C2`
Result: > 19.6 µM

Q: Tell me measured TGI for `CNN1C(=O)c2c(C)c(C)c(C#N)c(N)c2C1=O` please.
Result: > 100 µM

###

Please provide measured TGI for the entries that follow.
Test system: NCI-H522 lung
Method notes: NCI tumour cell line growth inhibition, 48 h
Just the number please, in µM, no unit attached.

Q: Given `O=C(NCCCNCCCCNCCCNC(=O)c1cc(-c2ccccc2)nc2ccccc12)c1cc(-c2ccccc2)nc2ccccc12` , respond with its TGI.
Result: 5.64

Q: Read off the recorded TGI for `Cc1cc(C#Cc2ccccc2)ccc1-n1c(/C=C/c2cc(O)ccc2O)nc2ccccc2c1=O`
Result: 2.56

Q: Give the measured TGI for CCCCCCCCCCCC(=O)OC(COC(N)=O)COc1ccc(Cl)cc1 (stereo not drawn)
Result: 31.5

###

Test system: CCRF-CEM leukemia
Method notes: NCI tumour cell line growth inhibition, 48 h
Readout kind: TGI

Q: For the compound CCCCCCC1CC(=O)C1(Cl)Cl (stereo not drawn) , give its reported TGI.
Result: 29.6 µM

Q: Provide TGI value for the following compound: `Fc1ccc(-c2c(-c3ccncc3)[nH]c3nccnc23)cc1`
Result: > 25 µM

Q: Identify the reported TGI for the following entry. `COc1cc(/C=C/c2ccccn2)cc(OC)c1OC`
Result: > 10 µM

###

Tested on: HL-60(TB) leukemia
Method notes: NCI tumour cell line growth inhibition, 48 h
For each of the molecules below, state its TGI.

Q: Report TGI on HL-60(TB) leukemia for this entry: N#CC1CCCCC1NC1(C#N)CCCCC1 (stereo not drawn)
Result: > 100 µM

Q: Look up and report measured TGI (HL-60(TB) leukemia) for the following molecule: `Cc1nc2ccc(N)cc2[nH]c1=O`
Result: > 100 µM

Q: Given `CSc1ccc(/C=C2\N=C(c3ccccc3)N(/N=C3\C(=O)Nc4ccccc43)C2=O)cc1` , report its TGI on HL-60(TB) leukemia.
Result: > 100 µM
